Test: Absorptive (apical to basolateral) DHE permeability assay through Caco-2 monolayers
Assay type: in vitro ADME, human
Conditions: human, Caco-2, pH 7.4; 100 µM DHE, GCA 10 mM, absence of coffee, 6 h; read-out: DHE apparent permeability coefficient (Papp)
Procedure: For transport experiments, the Caco-2 monolayers were prepared by seeding the cells at a density of 2.6 × 10^5 cells/cm^2 on 12-well polycarbonate Transwell^TM plates, following protocols previously defined for this assay. The cells were cultured until monolayer differentiation, for a total of 24 days, with culture medium being renewed every two days. […] After two washing steps, the transepithelial electrical resistance (TEER) values were measured using a Millicell® ERS-2 voltmeter (Merck). […]
Experimental readout: Papp at 6 h, 100 µM (×10⁻⁶ cm/s)
# value in ×10⁻⁶ cm/s; strip the unit string

Q. State its Papp at 6 h, 100 µM: CC(C)[C@@H](C)C=C[C@@H](C)[C@H]1CC[C@H]2C3=CC=C4C[C@@H](O)CC[C@]4(C)C3=CC[C@]12C [DHE, ergosta-5,7,9(11),22-tetraen-3β-ol]
A. 0.026

----------
Assay: Absorptive (apical to basolateral) DHE permeability assay through Caco-2 monolayers
Format: in vitro ADME, human
Conditions: human, Caco-2, pH 7.4; 50 µM DHE, GCA 10 mM, absence of coffee, 6 h; read-out: DHE apparent permeability coefficient (Papp)
Experimental readout: Papp at 6 h, 50 µM
Provide a numeric answer, followed by its unit.

Q. State its Papp at 6 h, 50 µM: CC(C)[C@@H](C)C=C[C@@H](C)[C@H]1CC[C@H]2C3=CC=C4C[C@@H](O)CC[C@]4(C)C3=CC[C@]12C
A. 0.0017 ×10⁻⁶ cm/s

----------
Assay: MTT cell viability assay (bile salts and coffee extracts)
Format: cell-based
Conditions: human, Caco-2 cells, pH 7.4; GDCA in HBSS, all tested concentrations (1.56–50 mM); Figure S4 (incubation 2 h)
Method: The influence of bile salts and coffee extracts on the Caco-2 cells viability was assessed with the MTT assay for determination of mitochondrial activity in active cells. Briefly, the cells were seeded in 96-well plates at a density of 1 × 10^4 cells/well in 200 μL of medium. […] The absorbances were measured at 570 nm in a Synergy HT Microplate Reader (BioTek Instruments, Inc., Winooski, VT, USA). […] Results are expressed as a percentage of cell viability relative to the negative control.
Experimental readout: viability at 2 h

Q. State its viability at 2 h: CC(CCC(=O)NCC(=O)O)C1CCC2C3CCC4CC(O)CCC4(C)C3CC(O)C12C (stereo not shown)
A. < 10%
